Hello, the source for this data is PubChem BioAssay (NCI), in case you need it.

- Test system: RPMI-8226 leukemia
- Test name: NCI-60 one-dose screen, 48 h (100 = growth as untreated, 0 = no growth, -100 = all killed)
- Condition context: 10 µM unless noted
The panel holds about 83,000 compounds, 20% with a hit somewhere; the sample as a whole holds those more often.
So I've got a bunch of compounds here, and I need their growth values.
Could you give me the number in %? Just the number is fine.

Field request: growth | item: `CCOC(=O)CC(C)=N`
113

Similarly, `C=C1C(=O)O[C@H]2[C@H]1CC/C(Cn1cc(Cn3ccc4cc(Cl)ccc43)nn1)=C\CC[C@@]1(C)O[C@@H]21` ?
-42.3

Similarly, `COCCCN=C(N)c1ccc(NC(=O)c2ccc(C(=O)Nc3ccc(C(N)=NCCCOC)cc3)cc2)cc1` ?
63.2

Similarly, `O=C(C[C@@H](C(=O)NCc1cccc(C(F)(F)F)c1)N1C(=O)[C@@H](N2C(=O)OC[C@@H]2c2ccccc2)[C@H]1/C=C/c1ccccc1)NC1CCN(Cc2ccccc2)CC1` ?
-13.7

Similarly, `c1ccc2sc(SCCCn3ccnc3)nc2c1` ?
79

Similarly, `COCCCNc1nc(NC(=O)c2ccc(F)cc2C)cc(-c2cccnc2)n1` ?
90.2

Similarly, CCCCN(CCCC)CCC(C)(O)c1cc2ccccc2c2ccccc12 (stereo not given) ?
67.3

Similarly, `COc1ccc(-n2cc(-c3ccccc3)c3c(SCC(=O)N/N=C/c4ccc([N+](=O)[O-])cc4)ncnc32)cc1` ?
108

Similarly, CCCCCCCCCCCCNC(=O)[C@H]1CSC(c2ccc(OC)c(F)c2)N1 (stereo not given in full) ?
-53.3

Similarly, `COc1ccc(/C(=C/c2ccc3ccccc3c2)c2nn[nH]n2)cc1OC` ?
16.6

Similarly, `CC1=C(NCCN2CCCC2)C(=O)c2c(OCc3cccc(Cl)c3)cccc2C1=O` ?
60.9

Similarly, `CC(=O)Oc1cc2cnc3c4cc(OC(C)=O)c(OC(C)=O)cc4ccc3c2cc1OC(C)=O` ?
12.8

Similarly, `COc1cc2c(c(OC)c1OC)-c1ccc(N=NC(N)=S)c(=O)cc1[C@@H](NC(C)=O)CC2` ?
30.8

Similarly, CC(=O)OCC(=O)C1CCC=CC1OC(C)=O (stereo not given) ?
100

Similarly, `Cn1cc(-c2csc(-c3cn(C)c4ncccc34)n2)c2ccccc21` ?
22.4

Similarly, `COc1ccc(C(=O)c2sc3nc4c(cc3c2N)CCCC4)cc1OC` ?
10.4

Similarly, `CC1=C(NCCN2CCCC2)C(=O)c2c(OCc3ccc(F)c(Cl)c3)cccc2C1=O` ?
50.4

Similarly, `Nc1ccc(N2CCOCC2)cc1` ?
112

Similarly, `Cc1cc(Nc2nc(N3CCOCC3)nc3ccccc23)n[nH]1` ?
82.5

Similarly, CCC(C)[C@@H]1NC(=O)[C@@H]2CCCN2C(=O)[C@H](Cc2ccccc2)NC(=O)[C@@H]2CCCN2C(=O)[C@H](Cc2ccccc2)NC(=O)[C@@H]2CCCN2C(=O)[C@H](Cc2ccccc2)NC1=O (stereo not given in full) ?
85.7

----------
- Test system: 786-0 renal
- Test name: NCI-60 one-dose screen, 48 h (100 = growth as untreated, 0 = no growth, -100 = all killed)
- Condition context: 10 µM unless noted
This is part of a sample that, as a whole, favours compounds with a hit. Of some 83,000 tested, about 20% had one in any assay.
Measured endpoint: growth (%)
Could you give me the number in %? Just the number is fine.

Field request: growth | item: `Cc1cc(-c2nc3ccccc3s2)ccc1NC(=O)COc1ccc(Cl)cc1`
93.4

Similarly, `O=C1C=CC(=O)N1c1ccc(Cc2ccc(N3C(=O)C=CC3=O)cc2)cc1` ?
97.1

Similarly, COc1cccc2c1C(=O)c1c(O)c3c(c(O)c1C2=O)C[C@@](O)(/C(C)=N/NC(=O)c1ccc(Cl)cc1)C[C@@H]3OC1CC(N)C(O)C(C)O1 (some centres undefined) ?
-6.44

Similarly, `O=C(Nc1ccc(Nc2cc(Nc3ccccc3)ncn2)cc1)Nc1cc(C(F)(F)F)ccc1F` ?
84.4

Similarly, `CCOc1ccc(Nc2nc(-c3c(C)nc4ncccn34)cs2)cc1` ?
9.74

Similarly, `CN1CCN(Cc2ccc(NC(=O)c3cncc(C#Cc4cnc(N)c5cccnc45)c3)cc2C(F)(F)F)CC1` ?
32.8

Similarly, `Cc1ccc2c(c1)C(=O)/C(=C/c1ccc(OCC(=O)c3ccccc3)cc1)O2` ?
86.8

Similarly, `CC[C@H](CO)Nc1nc(NCc2ccccc2)n2ncc(C(C)C)c2n1` ?
-2.74

Similarly, `O=C1c2cc3c(cc2-c2c1c1cc(F)c(F)cc1c(=O)n2C[C@H](O)CO)OCO3` ?
-20.8
